Just for reference, patent US10947248B2 is where these values come from.

- Tested on: HT-29 (colon cancer)
- TEST NAME: MTT in vitro cytotoxicity assay, HT-29
- Type: cell-based
- APPLIED CONDITIONS: Homo sapiens, HT-29, 48 h, read-out: IC50 HT-29
I'd appreciate it if you marked entries t when IC50 is lower than 5 µM and f when it is not.

[
  {
    "ITEM SMILES": "COc1ccc(Cn2cc(C(=O)N[C@@H]3c4cc5c(cc4[C@@H](c4cc(OC)c(OC)c(OC)c4)[C@H]4C(=O)OC[C@@H]43)OCO5)nn2)cc1",
    "ASSIGNED CLASS": "f"
  },
  {
    "ITEM SMILES": "COc1cc([C@@H]2c3cc4c(cc3[C@@H](NC(=O)c3cn(-c5ccccc5)nn3)[C@H]3COC(=O)[C@H]23)OCO4)cc(OC)c1OC",
    "ASSIGNED CLASS": "f"
  },
  {
    "ITEM SMILES": "COc1cc([C@@H]2c3cc4c(cc3[C@@H](NC(=O)c3cn(-c5ccc(C(F)(F)F)cc5)nn3)[C@H]3COC(=O)[C@H]23)OCO4)cc(OC)c1OC",
    "ASSIGNED CLASS": "t"
  },
  {
    "ITEM SMILES": "COc1cc([C@@H]2c3cc4c(cc3[C@@H](NC(=O)c3cn(Cc5ccc(Cl)cc5)nn3)[C@H]3COC(=O)[C@H]23)OCO4)cc(OC)c1OC",
    "ASSIGNED CLASS": "f"
  },
  {
    "ITEM SMILES": "COc1ccc(-n2cc(C(=O)N[C@@H]3c4cc5c(cc4[C@@H](c4cc(OC)c(OC)c(OC)c4)[C@H]4C(=O)OC[C@@H]43)OCO5)nn2)cc1",
    "ASSIGNED CLASS": "f"
  },
  {
    "ITEM SMILES": "COc1cc([C@@H]2c3cc4c(cc3[C@H](O)[C@H]3COC(=O)[C@H]23)OCO4)cc(OC)c1OC",
    "ASSIGNED CLASS": "t"
  },
  {
    "ITEM SMILES": "COc1cc([C@@H]2c3cc4c(cc3[C@@H](NC(=O)c3cn(-c5ccc(Cl)cc5)nn3)[C@H]3COC(=O)[C@H]23)OCO4)cc(OC)c1OC",
    "ASSIGNED CLASS": "t"
  }
]

====

[
  {
    "ITEM SMILES": "COc1cc([C@@H]2c3cc4c(cc3[C@@H](NC(=O)c3cn(-c5ccc6c(c5)OCO6)nn3)[C@H]3COC(=O)[C@H]23)OCO4)cc(OC)c1OC",
    "melting point": "188 to 191 °C"
  },
  {
    "ITEM SMILES": "COc1cc([C@@H]2c3cc4c(cc3[C@@H](NC(=O)c3cn(-c5ccc(Cl)cc5)nn3)[C@H]3COC(=O)[C@H]23)OCO4)cc(OC)c1OC",
    "melting point": "222 to 225 °C"
  },
  {
    "ITEM SMILES": "COc1cc([C@@H]2c3cc4c(cc3[C@@H](NC(=O)c3cn(Cc5ccc(Cl)cc5)nn3)[C@H]3COC(=O)[C@H]23)OCO4)cc(OC)c1OC",
    "melting point": "180 to 184 °C"
  },
  {
    "ITEM SMILES": "COc1ccc(Cn2cc(C(=O)N[C@@H]3c4cc5c(cc4[C@@H](c4cc(OC)c(OC)c(OC)c4)[C@H]4C(=O)OC[C@@H]43)OCO5)nn2)cc1",
    "melting point": "174 to 177 °C"
  }
]
